# Test Details: Activity against [Ca2+]-ATPase in rabbit white skeletal muscle sarcoplasmic reticulum vesicles
pIC50: −log10 of the molar value.
Quick rule: pIC50 of at least 7 means true, below that means false.

Problem: Hi, just wondering whether C/C=C(/C)C(=O)O[C@H]1C(C)=C2[C@H]([C@@H]1OC(=O)CCCCC)[C@@](C)(OC(C)=O)C[C@H](OC(=O)CCC)[C@@]1(O)[C@H]2O[C@H]2O[C@]21C shows pIC50 of 7 or higher.
Solution: true

Problem: Hi, just wondering whether C/C=C(/C)C(=O)O[C@H]1C(C)=C2[C@H]([C@@H]1OC(=O)CCCCC)[C@@](C)(OC(C)=O)C[C@H](OC(=O)CCC)[C@@]1(O)[C@H]2O[C@H]2O[C@H](OCC)O[C@]21C shows pIC50 of 7 or higher.
Solution: true

Problem: Hi, just wondering whether C/C=C(/C)C(=O)O[C@H]1C(C)=C2[C@H]([C@@H]1OC(=O)CCCCC)[C@@](C)(OC(C)=O)C[C@H](OC(=O)CCC)[C@@]1(O)[C@H]2O[C@H]2O[C@@H](OCC)O[C@]21C shows pIC50 of 7 or higher.
Solution: false

Problem: Hi, just wondering whether C/C=C(/C)C(=O)O[C@H]1C(C)=C2[C@H]([C@@H]1OC(=O)CCCCC)[C@@](C)(OC(C)=O)C[C@H](OC(=O)CCC)[C@@]1(O)[C@H]2O[C@@H](OC(C)=O)[C@@]1(C)O shows pIC50 of 7 or higher.
Solution: true
